The values you see were collected from PubChem BioAssay AID1159580.

// normalized growth lookup, one value per entry
Procedure Text: chemical genetic growth profiling, strain panel (AID 1159580);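 further: tested at 20 µM; growth read once vehicle control cultures reached saturation at 30 °C; 1 = growth at the plate median or of vehicle wells; lower values mean less growth of the strain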
Recorded Conditions: S. cerevisiae deletion strains, growth OD, locus YOR080W, strain dia2, active compounds read low
Screen size: about 5,500 compounds; about 2,000 (36%) were called active. About 18% were inconclusive and are not listed. The list shows a part of the results.

Example compounds with recorded normalized growth:
# Compound, normalized growth
rows = [
    ("CC1(C)NC(=O)N(c2ccc([N+](=O)[O-])c(C(F)(F)F)c2)C1=O", "0.987 (inactive)"),
    ("CCOC(=O)[C@H](CCc1ccccc1)N[C@@H](C)C(=O)N1[C@H](C(=O)O)C[C@@H]2CCC[C@@H]21", "0.982 (inactive)"),
    ("C=C1CCC2C(CC2(C)C)C(=C)CC/C1=N\\O (centres undefined)", "1.01 (inactive)"),
]

Now consider a different compound.
# return recorded normalized growth for entry OC(Cn1cncn1)(Cn1cncn1)c1ccc(F)cc1F
0.987 (inactive)
